Attribute: IC50
Target: HLA class I molecule
Assay: HLA class I peptide binding affinity assay (inhibition of 125I-radiolabeled probe peptide binding to purified HLA)
Set-up: species or system human
Settings: allele A02.01; read-out: Observed Affinity (IC50; (nM))
Procedure: Epstein-Barr virus (EBV)-transformed homozygous cell lines, fibroblasts, CIR, or 721.22 transfectants are used as sources of HLA class I molecules. […] HLA molecules are purified from lysates by affinity chromatography. […] Protein content is evaluated by a BCA protein assay (Pierce Chemical Co., Rockford, IL) and confirmed by SDS-PAGE. […] Since under these conditions [label]<[HLA] and IC50≥[HLA], the measured IC50 values are reasonable approximations of the true KD values. […]
Where no end group is shown, it is not given here.

{"sequence code": "GVYTFLPSTL", "target or system": "HLA class I molecule", "measurement units": "nM", "IC50": 1200}
{"sequence code": "FFFSVIFST", "target or system": "HLA class I molecule", "measurement units": "nM", "IC50": 4560}
{"sequence code": "LLYITAFFLL", "target or system": "HLA class I molecule", "measurement units": "nM", "IC50": 323}
{"sequence code": "RLWHLLLQV", "target or system": "HLA class I molecule", "measurement units": "nM", "IC50": 1.3}
{"sequence code": "ITAFFFCWI", "target or system": "HLA class I molecule", "measurement units": "nM", "IC50": 7490}
{"sequence code": "NVVPLCDLLL", "target or system": "HLA class I molecule", "measurement units": "nM", "IC50": 1370}
{"sequence code": "WLHKRGKYI", "target or system": "HLA class I molecule", "measurement units": "nM", "IC50": 1250}
{"sequence code": "PLSDLLLEM", "target or system": "HLA class I molecule", "measurement units": "nM", "IC50": 404}
{"sequence code": "GMNWRPILT", "target or system": "HLA class I molecule", "measurement units": "nM", "IC50": 1130}
{"sequence code": "FILMELMAGG", "target or system": "HLA class I molecule", "measurement units": "nM", "IC50": 1580}
{"sequence code": "LLDILDTAGL", "target or system": "HLA class I molecule", "measurement units": "nM", "IC50": 716}
{"sequence code": "MNIANLLGA", "target or system": "HLA class I molecule", "measurement units": "nM", "IC50": 128}
{"sequence code": "VLHESNSPYI", "target or system": "HLA class I molecule", "measurement units": "nM", "IC50": 131}
{"sequence code": "MSVCFFFFSV", "target or system": "HLA class I molecule", "measurement units": "nM", "IC50": 1710}
{"sequence code": "PLNDLLLEM", "target or system": "HLA class I molecule", "measurement units": "nM", "IC50": 151}
{"sequence code": "FLLALWECS", "target or system": "HLA class I molecule", "measurement units": "nM", "IC50": 93.2}
{"sequence code": "FKLFSCLSFL", "target or system": "HLA class I molecule", "measurement units": "nM", "IC50": 663}
{"sequence code": "IMSLWGLVS", "target or system": "HLA class I molecule", "measurement units": "nM", "IC50": 7320}
{"sequence code": "TQISSATEYL", "target or system": "HLA class I molecule", "measurement units": "nM", "IC50": 2640}
{"sequence code": "AFSGEYIPTV", "target or system": "HLA class I molecule", "measurement units": "nM", "IC50": 781}
{"sequence code": "ITAFFLLDI", "target or system": "HLA class I molecule", "measurement units": "nM", "IC50": 78.7}
